Reference for the values: the supplement of paper PMC10567573

B1: CCDC70 (parent)
chain: FSFKVSRWMGLACFRSLAASSPSI

Variants of: B1
test protocol: protein stability index of a GFP-peptide fusion (GPS, HEK-293T) (PSI 1-6); higher = more stable;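 further: lentivirally expressed fusions sorted by FACS into six bins by GFP to DsRed ratio, PSI derived from sequencing read proportions per bin multiplied by bin number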
assay setup: c terminus: a fixed tail appended
quantity kind: protein stability index
// no unit string in output, number only

Data request: Quickly give me recorded protein stability index for `F3K`
Data returned: 1.39

Data request: Quickly give me recorded protein stability index for `S6C`
Data returned: 2.82

Data request: Quickly give me recorded protein stability index for `R7F`
Data returned: 2.69

Data request: Quickly give me recorded protein stability index for `L17P`
Data returned: 3.88

Data request: Quickly give me recorded protein stability index for `F1M`
Data returned: 4.47

Data request: Quickly give me recorded protein stability index for `W8C`
Data returned: 2.07

Data request: Quickly give me recorded protein stability index for `S21C`
Data returned: 2.05

Data request: Quickly give me recorded protein stability index for `L11E`
Data returned: 1.76

Data request: Quickly give me recorded protein stability index for `R15H`
Data returned: 3.52

Data request: Quickly give me recorded protein stability index for `S20K`
Data returned: 3.32

Data request: Quickly give me recorded protein stability index for `L17S`
Data returned: 1.87

Data request: Quickly give me recorded protein stability index for `K4W`
Data returned: 4.77

Data request: Quickly give me recorded protein stability index for `S6A`
Data returned: 2.99

Data request: Quickly give me recorded protein stability index for `F14Q`
Data returned: 1.72

Data request: Quickly give me recorded protein stability index for `S20V`
Data returned: 2.6

Data request: Quickly give me recorded protein stability index for `P22Y`
Data returned: 2.86

Data request: Quickly give me recorded protein stability index for `S23H`
Data returned: 1.65

Data request: Quickly give me recorded protein stability index for `S23Q`
Data returned: 3.59

Data request: Quickly give me recorded protein stability index for `K4P`
Data returned: 1.65

Data request: Quickly give me recorded protein stability index for `K4V`
Data returned: 3.11

Data request: Quickly give me recorded protein stability index for `L17H`
Data returned: 2.29

Data request: Quickly give me recorded protein stability index for `A19P`
Data returned: 2.09

Data request: Quickly give me recorded protein stability index for `S2F`
Data returned: 3.87

Data request: Quickly give me recorded protein stability index for `A18V`
Data returned: 2.58

Data request: Quickly give me recorded protein stability index for `F3L`
Data returned: 4.25

Data request: Quickly give me recorded protein stability index for `S16R`
Data returned: 3.88

Data request: Quickly give me recorded protein stability index for `A12H`
Data returned: 1.57

Data request: Quickly give me recorded protein stability index for `A18M`
Data returned: 2.78

Data request: Quickly give me recorded protein stability index for `A12L`
Data returned: 2

Data request: Quickly give me recorded protein stability index for `L11S`
Data returned: 3.51

Data request: Quickly give me recorded protein stability index for `W8T`
Data returned: 2.58

Data request: Quickly give me recorded protein stability index for `S16W`
Data returned: 2.79

Data request: Quickly give me recorded protein stability index for `P22W`
Data returned: 3.4

Data request: Quickly give me recorded protein stability index for `S21R`
Data returned: 1.75

Data request: Quickly give me recorded protein stability index for `F14T`
Data returned: 1.31

Data request: Quickly give me recorded protein stability index for `A18F`
Data returned: 2.74

Data request: Quickly give me recorded protein stability index for `S16P`
Data returned: 3.05

Data request: Quickly give me recorded protein stability index for `C13S`
Data returned: 2.66

Data request: Quickly give me recorded protein stability index for `G10M`
Data returned: 4.54

Data request: Quickly give me recorded protein stability index for `F14K`
Data returned: 1.93

Data request: Quickly give me recorded protein stability index for `A19L`
Data returned: 3.58

Data request: Quickly give me recorded protein stability index for `L11N`
Data returned: 2.65

Data request: Quickly give me recorded protein stability index for `F3A`
Data returned: 3.33

Data request: Quickly give me recorded protein stability index for `A19G`
Data returned: 2.19

Data request: Quickly give me recorded protein stability index for `F1S`
Data returned: 1.38

Data request: Quickly give me recorded protein stability index for `S16N`
Data returned: 3.94
